measured on: T1, HLA-A*24:02 (human)
T1 construct: Peptide-receptive MHC class I monomer made by UV cleavage of a UV-sensitive ligand
assay details: UV ligand exchange ELISA; exchange yield grade
measured endpoint: peptide exchange yield

The cases that follow already have their peptide exchange yield on record.
RFYLLTEHF	50 to 75%
LYSDIGHLL	50 to 75%

Supply recorded peptide exchange yield for TYVENLRLL here.
50 to 75%
